assayNotes: Half life in dog hepatocyte at 1 mM
Type: ADME, Canis lupus familiaris, Liver
cond: hepatocytes
observationType: half-life (h)
Output spec: scalar in h, unitless text.

## Input Given the entry Cc1ccc(F)cc1CO[C@H]1CCc2ccc(N3CCNC[C@H]3C)nc21 , report its measured half-life.
## Output 1.07

----------
testedTarget: 5-hydroxytryptamine receptor 2C (Homo sapiens)
assayNotes: Agonist activity against human 5HT2C receptor by FLIPR assay
observationType: Activity (%)
Output spec: scalar in %, unitless text.

// known answers, use as guide
## Input Given the entry c1cc2c(nc1N1CCNCC1)CCCC2 , report its measured Activity.
## Output 93

## Input Given the entry Clc1ccccc1O[C@H]1CCc2ccc(N3CCNCC3)nc21 , report its measured Activity.
## Output 92

Others:
## Input Given the entry c1cc2occc2c(N2CCNCC2)n1 , report its measured Activity.
## Output 67

## Input Given the entry C[C@@H]1CNCCN1c1ccc2c(n1)[C@@H](OCc1cc(F)ccc1F)CC2 , report its measured Activity.
## Output 96

## Input Given the entry Brc1cn2ccnc2c(N2CCNCC2)n1 , report its measured Activity.
## Output 79

## Input Given the entry Clc1cccc(COc2nc(N3CCNCC3)nc3ccsc23)c1 , report its measured Activity.
## Output 43

## Input Given the entry Clc1cccc(COc2nc(N3CCNCC3)nc3sccc23)c1 , report its measured Activity.
## Output 53

## Input Given the entry Cc1cc2c(N3CCNCC3)ncnc2o1 , report its measured Activity.
## Output 45
